Biological target: GLUT1 (Homo sapiens, UniProt P11166)
Sequence (P11166 whole entry, species assumed): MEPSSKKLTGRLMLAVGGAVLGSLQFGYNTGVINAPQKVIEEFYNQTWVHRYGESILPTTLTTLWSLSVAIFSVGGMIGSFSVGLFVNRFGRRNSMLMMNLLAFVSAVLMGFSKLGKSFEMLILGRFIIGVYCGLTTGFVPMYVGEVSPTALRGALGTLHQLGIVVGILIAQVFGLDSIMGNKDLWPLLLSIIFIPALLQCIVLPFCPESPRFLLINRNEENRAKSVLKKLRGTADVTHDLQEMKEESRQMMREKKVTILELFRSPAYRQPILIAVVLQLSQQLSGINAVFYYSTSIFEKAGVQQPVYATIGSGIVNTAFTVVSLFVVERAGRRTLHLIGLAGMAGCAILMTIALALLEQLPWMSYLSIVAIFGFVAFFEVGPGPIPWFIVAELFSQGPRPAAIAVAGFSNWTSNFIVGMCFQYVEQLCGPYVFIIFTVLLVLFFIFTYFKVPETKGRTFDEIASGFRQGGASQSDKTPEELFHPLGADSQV
Test: Indirect measurement of GLUT1 activity by quantification of intracellular ATP levels (glucose induced ATP increase)
Format: cell-based
Parameters: endogenous in cells; host or cells: DLD1 or CHO-K1
Conditions: read-out: IC50 regarding glucose induced ATP increase (GLUT1 inhibition)
Field: IC50. Provide a value for each of the compounds that follow.

Challenge: Output IC50 of `COc1cc(C(=O)Nc2c(C)nn(Cc3ccn(C)n3)c2C)c2ccccc2n1`
Response given: 556 nM

Challenge: Output IC50 of `Cc1nn(CC2CCN(S(C)(=O)=O)CC2)c(C)c1NC(=O)c1cc(C(N)=O)nc2ccccc12`
Response given: 39.3 nM

Challenge: Output IC50 of `Cc1nn(Cc2ccc(C(=O)O)cn2)c(C)c1NC(=O)c1cc(C(N)=O)nc2ccc(F)cc12`
Response given: 3500 nM

Challenge: Output IC50 of `Cc1c(NC(=O)c2cc(C(N)=O)nc3cc(F)ccc23)c(C(F)(F)F)nn1Cc1ncco1`
Response given: 402 nM

Challenge: Output IC50 of `Cc1nn(CCOc2ccc(C#N)cc2)c(C)c1NC(=O)c1cc(C(N)=O)nc2ccccc12`
Response given: 1020 nM

Challenge: Output IC50 of `Cc1c(NC(=O)c2cc(C(N)=O)nc3ccccc23)c(C(F)(F)F)nn1Cc1ccc(CC#N)cc1`
Response given: 1.3 nM

Challenge: Output IC50 of `Cc1nn(Cc2ccc(C#N)cn2)c(C)c1NC(=O)c1cc(C(N)=O)nc2ccccc12`
Response given: 3.9 nM

Challenge: Output IC50 of `Cc1nn(Cc2ccc(CC#N)cc2)c(C)c1NC(=O)c1cc(C(N)=O)nc2cc(F)ccc12`
Response given: 0.7 nM

Challenge: Output IC50 of `Cc1nn(Cc2ccc(C(=O)NCCCC(C)(C)CO)cc2)c(C)c1NC(=O)c1cc(C(F)(F)F)nc2ccc(Br)cc12`
Response given: 52.2 nM

Challenge: Output IC50 of `Cc1c(NC(=O)c2cc(C(N)=O)nc3cc(F)ccc23)c(C(F)(F)F)nn1Cc1ccc(OC(F)(F)F)cc1`
Response given: 5.4 nM

Challenge: Output IC50 of `Cc1nn(Cc2ccccc2C(F)(F)F)c(C)c1NC(=O)c1cc(C(F)(F)F)nc2c(Cl)cc(Cl)cc12`
Response given: 11100 nM

Challenge: Output IC50 of `Cc1c(NC(=O)c2cc(C(F)(F)F)nc3c(Cl)cc(Cl)cc23)c(C(F)(F)F)nn1Cc1ccc(F)c(F)c1`
Response given: 441 nM

Challenge: Output IC50 of `CCS(=O)(=O)N1CCC(Cn2nc(C(F)(F)F)c(NC(=O)c3cc(C(N)=O)nc4cc(F)c(Cl)cc34)c2C)CC1`
Response given: 5.6 nM

Challenge: Output IC50 of `Cc1c(NC(=O)c2cc(C(F)(F)F)nc3ccc(Br)cc23)c(C(F)(F)F)nn1Cc1ccc(C#N)cn1`
Response given: 5.5 nM

Challenge: Output IC50 of `Cc1c(NC(=O)c2cc(C(N)=O)nc3cccc(F)c23)c(C(F)(F)F)nn1Cc1ccc(S(C)(=O)=O)cc1`
Response given: 13.9 nM

Challenge: Output IC50 of `CNC(=O)N1CCC(Cn2nc(C)c(NC(=O)c3cc(C(F)(F)F)nc4ccc(Br)cc34)c2C)CC1`
Response given: 56.8 nM

Challenge: Output IC50 of `COc1cccc(Cn2nc(C)c(NC(=O)c3cc(C(N)=O)nc4cc(F)ccc34)c2C)c1`
Response given: 9.8 nM

Challenge: Output IC50 of `Cc1nn(Cc2ccc(C(=O)NCc3cn(C)cn3)cc2)c(C)c1NC(=O)c1cc(C(F)(F)F)nc2ccc(Br)cc12`
Response given: 78.5 nM

Challenge: Output IC50 of `Cc1c(NC(=O)c2cc(C(N)=O)nc3cc(F)ccc23)c(C(F)(F)F)nn1Cc1ccc(CC(F)(F)F)cc1`
Response given: 6.4 nM

Challenge: Output IC50 of `CCc1nn(Cc2ccc(C#N)cc2)c(C)c1NC(=O)c1cc(C(N)=O)nc2ccccc12`
Response given: 3.9 nM

Challenge: Output IC50 of `Cc1nn(Cc2cccc(OC(F)(F)F)c2)c(C)c1NC(=O)c1cc(C(N)=O)nc2ccccc12`
Response given: 45.5 nM

Challenge: Output IC50 of `Cc1nn(Cc2ccc(C(F)(F)F)cc2)c(C)c1NC(=O)c1cc(C(F)(F)F)nc2c(Cl)cc(Cl)cc12`
Response given: 1590 nM

Challenge: Output IC50 of `Cc1c(NC(=O)c2cc(C(N)=O)nc3ccccc23)c(C(F)(F)F)nn1Cc1cccc(S(C)(=O)=O)c1`
Response given: 292 nM

Challenge: Output IC50 of `Cc1nn(Cc2c(F)cccc2F)c(C)c1NC(=O)c1cc(C(N)=O)nc2cc(F)ccc12`
Response given: 6.5 nM

* * *

Target: GLUT1 (Homo sapiens)
Assay: Indirect measurement of GLUT1 activity by quantification of intracellular ATP levels (glucose induced ATP increase)
Format: cell-based
Set-up: endogenous in cells; host or cells: DLD1 or CHO-K1
Details: read-out: IC50 regarding glucose induced ATP increase (GLUT1 inhibition)
value type: log10(IC50) (log10 of the value in nM)
All values: base-10 log of IC50 in nM.

Challenge: Output log10(IC50) of CCc1nn(Cc2ccc(C#N)cc2)c(CC)c1NC(=O)c1cc(C(N)=O)nc2cc(Cl)ccc12 [Example 313]
Response given: 2.27

Challenge: Output log10(IC50) of COc1cc(C(=O)Nc2c(C)nn(Cc3cccc(C(F)(F)F)c3)c2C)c2ccccc2n1 [Example 1303]
Response given: 4.05

Challenge: Output log10(IC50) of Cc1nn(Cc2ccc(F)cc2)c(C)c1NC(=O)c1cc(C(F)(F)F)nc2ccc(NC(=O)C(N)=O)cc12 [Example 1242]
Response given: 3.19

Challenge: Output log10(IC50) of Cc1nn(Cc2ccc(OC(F)(F)F)cc2)c(C)c1NC(=O)c1cc(C(N)=O)nc2ccccc12 [Example 1460]
Response given: 0.28

Challenge: Output log10(IC50) of COc1ccc(Cn2nc(C)c(NC(=O)c3cc(C(N)=O)nc4ccccc34)c2C)cn1 [Example 282]
Response given: 0.51

Challenge: Output log10(IC50) of Cc1nn(Cc2ccc(C(=O)N3CCOCC3)cn2)c(C)c1NC(=O)c1cc(C(F)(F)F)nc2ccc(Br)cc12 [Example 1234]
Response given: 3.07

Challenge: Output log10(IC50) of Cc1cc(Cn2nc(C)c(NC(=O)c3cc(C(N)=O)nc4cc(F)c(Cl)cc34)c2C)ccc1C#N [Example 1696]
Response given: -0.05

Challenge: Output log10(IC50) of Cc1c(NC(=O)c2cc(C(N)=O)nc3cc(F)c(Cl)cc23)c(C(F)(F)F)nn1Cc1ccccc1OC(F)(F)F [Example 1704]
Response given: 2.04

Challenge: Output log10(IC50) of Cc1nn(Cc2ccccc2C#N)c(C)c1NC(=O)c1cc(C(N)=O)nc2ccc(F)cc12 [Example 221]
Response given: 0.83

Challenge: Output log10(IC50) of Cc1nn(Cc2cc(F)ccc2F)c(C)c1NC(=O)c1cc(C(F)(F)F)nc2c(Cl)cc(Cl)cc12 [Example 1295]
Response given: 3.91

Challenge: Output log10(IC50) of Cc1nn(Cc2ccc(C#N)cn2)c(C)c1NC(=O)c1cc(C(N)=O)nc2cccc(F)c12 [Example 352]
Response given: 0.40

Challenge: Output log10(IC50) of Cc1nn(CCCc2ccc(C#N)cc2)c(C)c1NC(=O)c1cc(C(N)=O)nc2cc(F)c(Cl)cc12 [Example 346]
Response given: -0.22

Challenge: Output log10(IC50) of CCc1noc(Cn2nc(C)c(NC(=O)c3cc(C(F)(F)F)nc4ccc(Br)cc34)c2C)n1 [Example 1570]
Response given: 1.68

* * *

Target: GLUT1 (Homo sapiens)
Assay: Indirect measurement of GLUT1 activity by quantification of intracellular ATP levels (glucose induced ATP increase)
Type: cell-based
Parameters: endogenous in cells; host or cells: DLD1 or CHO-K1
Conditions: read-out: IC50 regarding glucose induced ATP increase (GLUT1 inhibition)
Field: IC50. Provide a value for each of the molecules that follow.
Hi! Could you send only the number? It should be in nM, unit omitted.

Challenge: Find IC50 for Cc1nn(Cc2ccc(F)cc2)c(C)c1NC(=O)c1cc(C2CC2)nc2ccc(Cl)cc12 [Example 125] on GLUT1 (Homo sapiens) and write it down.
Response given: 2.5

Challenge: Find IC50 for Cc1c(NC(=O)c2cc(C(F)(F)F)nc3cc(F)c(F)cc23)c(C(F)(F)F)nn1Cc1ccc(F)cc1F [Example 210] on GLUT1 (Homo sapiens) and write it down.
Response given: 849

Challenge: Find IC50 for C=CCNC(=O)c1ccc(Cn2nc(C)c(NC(=O)c3cc(C(F)(F)F)nc4ccc(Br)cc34)c2C)cc1 [Example 1018] on GLUT1 (Homo sapiens) and write it down.
Response given: 1.9

Challenge: Find IC50 for Cc1cccc(Cn2nc(C)c(NC(=O)c3cc(C(N)=O)nc4cc(F)c(Cl)cc34)c2C)c1 [Example 1473] on GLUT1 (Homo sapiens) and write it down.
Response given: 5.2

Challenge: Find IC50 for Cc1nn(Cc2ccc(F)cc2)c(C(=O)N(C)C)c1NC(=O)c1cc(C(N)=O)nc2ccccc12 [Example 1250] on GLUT1 (Homo sapiens) and write it down.
Response given: 1670

Challenge: Find IC50 for Cc1cccc(Cn2nc(C(F)(F)F)c(NC(=O)c3cc(C(N)=O)nc4cc(F)c(Cl)cc34)c2C)c1 [Example 1481] on GLUT1 (Homo sapiens) and write it down.
Response given: 5.5

Data provenance: patent US20170037028A1
